Provenance of the data: ChEMBL document CHEMBL3774308

biological target: Histone acetyltransferase p300 (Homo sapiens); assay: Inhibition of full length recombinant human FLAG-tagged p300 expressed in baculovirus expression system using histone substrate incubated for 10 mins by radiometric gel assay
experimentalReadout: pIC50
Answers are plain numbers, as −log10 of the molar value.

Specify measured pIC50 for `CC(=O)N[C@@H](CCCCNC(=O)CSCCNC(=O)CCNC(=O)[C@H](O)C(C)(C)COP(=O)(O)OP(=O)(O)OC[C@H]1O[C@@H](n2cnc3c(N)ncnc32)[C@H](O)[C@@H]1OP(=O)(O)O)C(N)=O` .
6.30

====

target: Histone acetyltransferase p300 (Homo sapiens, UniProt Q09472); assay: Inhibition of full length recombinant His6-tagged p300 (unknown origin) expressed in baculovirus infected sf21 cells using histone substrate after 10 mins by liquid scintillation counting method in presence of [3H]acetyl-CoA
Sequence (Q09472 whole entry): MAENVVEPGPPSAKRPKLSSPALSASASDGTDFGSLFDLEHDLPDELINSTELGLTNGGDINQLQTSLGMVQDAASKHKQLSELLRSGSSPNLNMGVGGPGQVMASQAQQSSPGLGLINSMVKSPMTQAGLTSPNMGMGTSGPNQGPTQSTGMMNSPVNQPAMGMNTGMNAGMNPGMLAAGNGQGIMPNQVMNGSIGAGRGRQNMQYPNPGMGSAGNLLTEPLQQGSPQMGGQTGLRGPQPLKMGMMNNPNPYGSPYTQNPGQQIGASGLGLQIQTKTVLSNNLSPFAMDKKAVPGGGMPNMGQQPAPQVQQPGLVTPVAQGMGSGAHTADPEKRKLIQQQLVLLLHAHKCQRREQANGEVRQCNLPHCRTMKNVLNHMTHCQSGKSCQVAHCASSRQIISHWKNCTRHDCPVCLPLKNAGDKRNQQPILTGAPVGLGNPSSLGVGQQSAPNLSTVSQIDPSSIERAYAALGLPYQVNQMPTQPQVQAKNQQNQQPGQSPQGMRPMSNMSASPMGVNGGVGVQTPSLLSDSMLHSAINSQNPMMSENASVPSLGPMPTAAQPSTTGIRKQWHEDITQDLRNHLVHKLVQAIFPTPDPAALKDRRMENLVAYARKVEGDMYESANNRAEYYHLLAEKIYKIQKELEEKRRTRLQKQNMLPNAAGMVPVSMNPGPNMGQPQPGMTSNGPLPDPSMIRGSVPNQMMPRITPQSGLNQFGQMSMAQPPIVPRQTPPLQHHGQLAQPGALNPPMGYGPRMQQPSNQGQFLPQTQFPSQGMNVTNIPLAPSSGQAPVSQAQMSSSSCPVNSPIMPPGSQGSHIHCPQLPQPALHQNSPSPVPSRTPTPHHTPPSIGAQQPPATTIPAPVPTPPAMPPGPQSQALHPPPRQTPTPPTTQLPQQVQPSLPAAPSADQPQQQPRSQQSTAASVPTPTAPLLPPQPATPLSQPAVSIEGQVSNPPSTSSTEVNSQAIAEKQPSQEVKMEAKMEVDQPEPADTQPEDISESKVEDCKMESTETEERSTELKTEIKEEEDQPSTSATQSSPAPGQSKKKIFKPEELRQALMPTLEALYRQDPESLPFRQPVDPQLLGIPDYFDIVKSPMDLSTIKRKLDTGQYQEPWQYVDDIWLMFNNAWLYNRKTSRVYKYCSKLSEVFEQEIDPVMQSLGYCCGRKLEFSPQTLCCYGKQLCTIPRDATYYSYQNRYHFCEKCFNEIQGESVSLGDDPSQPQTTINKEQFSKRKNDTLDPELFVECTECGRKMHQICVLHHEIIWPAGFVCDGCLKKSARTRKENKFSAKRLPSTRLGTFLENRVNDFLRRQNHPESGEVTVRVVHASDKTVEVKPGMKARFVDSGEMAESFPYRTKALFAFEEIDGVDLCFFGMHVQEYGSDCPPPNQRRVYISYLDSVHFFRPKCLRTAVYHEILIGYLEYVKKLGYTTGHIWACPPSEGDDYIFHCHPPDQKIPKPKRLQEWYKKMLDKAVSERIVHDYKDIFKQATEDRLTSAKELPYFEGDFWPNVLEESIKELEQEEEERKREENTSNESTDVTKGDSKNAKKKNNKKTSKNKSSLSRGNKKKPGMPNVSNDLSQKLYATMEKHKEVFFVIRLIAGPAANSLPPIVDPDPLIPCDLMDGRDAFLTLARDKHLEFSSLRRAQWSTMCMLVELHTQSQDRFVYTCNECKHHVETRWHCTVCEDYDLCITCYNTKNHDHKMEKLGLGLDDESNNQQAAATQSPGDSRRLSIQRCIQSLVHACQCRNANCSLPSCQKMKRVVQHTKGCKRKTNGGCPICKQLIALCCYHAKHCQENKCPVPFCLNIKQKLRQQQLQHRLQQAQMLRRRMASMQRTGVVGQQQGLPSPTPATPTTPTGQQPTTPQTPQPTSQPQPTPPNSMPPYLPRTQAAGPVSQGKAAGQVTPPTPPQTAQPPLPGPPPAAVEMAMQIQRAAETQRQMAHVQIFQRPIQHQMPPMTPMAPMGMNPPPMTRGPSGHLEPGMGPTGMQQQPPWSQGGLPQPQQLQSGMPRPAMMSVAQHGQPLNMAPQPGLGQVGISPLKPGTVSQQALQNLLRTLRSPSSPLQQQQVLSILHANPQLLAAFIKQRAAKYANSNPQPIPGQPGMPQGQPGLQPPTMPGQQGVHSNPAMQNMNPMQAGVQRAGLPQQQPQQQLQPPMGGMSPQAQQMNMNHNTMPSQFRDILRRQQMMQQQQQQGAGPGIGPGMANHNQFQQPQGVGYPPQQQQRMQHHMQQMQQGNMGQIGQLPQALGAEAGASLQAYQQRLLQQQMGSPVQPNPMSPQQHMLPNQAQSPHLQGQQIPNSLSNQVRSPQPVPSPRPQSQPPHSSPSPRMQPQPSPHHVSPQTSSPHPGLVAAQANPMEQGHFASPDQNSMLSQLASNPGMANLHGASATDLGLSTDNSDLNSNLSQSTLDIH
experimentalReadout: IC50 (µM)
One number for each entry, in µM.

Give IC50 for `COc1ccc(C(=O)C2=C3OC(C)(C)[C@@H](CC=C(C)C)C[C@@]34C[C@@H](/C=C\C(C)C)C(C)(C)[C@@](CC=C(C)C)(C2=O)C4=O)cc1O`
5
